- TEST_DETAILS: Biodistribution of radiometal-DOTA-BBN conjugates in CF1 normal mice
- STUDY_CONDITIONS: CF-1, mouse, in vivo, iv, total radioactivity, Avg % ID, Kidney, 1 hour post-injection
MEASURED_QUANTITY: tissue uptake dose at 1 h

Return value of tissue uptake dose at 1 h for input CSCC[C@H](NC(=O)[C@H](CC(C)C)NC(=O)[C@H](Cc1cnc[nH]1)NC(=O)CNC(=O)[C@@H](NC(=O)[C@H](C)NC(=O)[C@H](Cc1c[nH]c2ccccc12)NC(=O)[C@H](CCC(N)=O)NC(=O)CN1CCN(CC(=O)O)CCN(CC(=O)O)CCN(CC(=O)O)CC1)C(C)C)C(N)=O [111In-DOTA-0-BBN[7-14]NH2, metal not drawn] , no commentary.
0.57 %ID
